This collection of values is drawn from patent US9226916B2.

# Measured On: recombinant human NK3 receptor (Homo sapiens, UniProt P29371)
# Construct: expressed in transfected cells; host or cells: HEK293 cells, transient expression; membranes
# Test Method Notes: [3H]SR142801 competition binding assay
Measured Attribute: log10(Ki) (log10 of the value in nM)

compound=CN(C(=O)Oc1ccc(F)cc1)[C@@H]1CN(C(=O)C2CCN(c3ccc(C(N)=O)cn3)CC2)C[C@H]1c1ccc(Cl)c(Cl)c1 reported_measurement=-0.22
compound=CN(C(=O)O[C@]1(C(F)(F)F)CC[C@@H](C)CC1)[C@@H]1CN(C(=O)C2CCN(c3ccc(C#N)cn3)CC2)C[C@H]1c1ccc(Cl)cc1 reported_measurement=1.36
compound=Cc1cc(OC(=O)N(C)[C@@H]2CN(C(=O)C3CCN(C(=O)C4(C)CC4)CC3)C[C@H]2c2ccc(Cl)c(Cl)c2)cc(C)n1 reported_measurement=1.05
compound="CN(C(=O)OCC(C)(C)C)[C@H]1CN(C(=O)C2CCN(C(=O)C3(C)CC3)CC2)C[C@@H]1c1ccc(Cl)c(Cl)c1 (racemic)" reported_measurement=1.23
compound=Cc1ccc(N2CCC(C(=O)N3C[C@@H](N(C)C(=O)Oc4ccc(F)cc4)[C@H](c4ccc(Cl)cc4)C3)CC2)nn1 reported_measurement=-0.52
compound=CN(C(=O)Oc1ccc(F)cc1)[C@@H]1CN(C(=O)C2CCN(c3ccc(C(F)(F)F)cn3)CC2)C[C@H]1c1ccc(Cl)cc1 reported_measurement=0.45

====

Below is a list of entries, each paired with its recorded pKi value.
# Measured On: recombinant human NK3 receptor (Homo sapiens, UniProt P29371)
# Construct: expressed in transfected cells; host or cells: HEK293 cells, transient expression; membranes
# Test Method Notes: [3H]SR142801 competition binding assay
pKi: −log10 of the molar value.
Measured Attribute: pKi

compound=CN(C(=O)Oc1ccc(F)cc1)[C@@H]1CN(C(=O)C2CCN(C(=O)C3(C)CC3)CC2)C[C@H]1c1ccc(F)cc1 reported_measurement=7.86
compound="COc1ccc(OC(=O)N(C)[C@H]2CN(C(=O)C3CCN(C(=O)C4(C)CC4)CC3)C[C@@H]2c2ccc(Cl)c(Cl)c2)cc1 (racemic)" reported_measurement=8.60
compound="CN(C(=O)Oc1ccc(F)cc1)[C@H]1CN(C(=O)[C@H]2CC[C@](C)(O)CC2)C[C@@H]1c1ccc(Cl)c(Cl)c1 (racemic)" reported_measurement=8.09
compound=CC(=O)N1CCC(C(=O)N2C[C@@H](N(C)C(=O)Oc3ccc(F)cc3)[C@H](c3ccc(F)cc3)C2)CC1 reported_measurement=7.72
compound=CN(C(=O)Oc1ccc(F)cc1)[C@@H]1CN(C(=O)C2CCN(C(=O)C3CC(F)(F)C3)CC2)C[C@H]1c1ccc(Cl)cc1 reported_measurement=8.85
compound="CN(C(=O)OCC1CCOC1)[C@@H]1CN(C(=O)C2CCN(c3ccc(C#N)cn3)CC2)C[C@H]1c1ccc(Cl)cc1 (stereo partly drawn)" reported_measurement=8.22

====

Below is a list of entries, each paired with its recorded log10(Ki) value.
# Measured On: recombinant human NK3 receptor (Homo sapiens)
# Construct: expressed in transfected cells; host or cells: HEK293 cells, transient expression; membranes
# Sequence (P29371 1-465): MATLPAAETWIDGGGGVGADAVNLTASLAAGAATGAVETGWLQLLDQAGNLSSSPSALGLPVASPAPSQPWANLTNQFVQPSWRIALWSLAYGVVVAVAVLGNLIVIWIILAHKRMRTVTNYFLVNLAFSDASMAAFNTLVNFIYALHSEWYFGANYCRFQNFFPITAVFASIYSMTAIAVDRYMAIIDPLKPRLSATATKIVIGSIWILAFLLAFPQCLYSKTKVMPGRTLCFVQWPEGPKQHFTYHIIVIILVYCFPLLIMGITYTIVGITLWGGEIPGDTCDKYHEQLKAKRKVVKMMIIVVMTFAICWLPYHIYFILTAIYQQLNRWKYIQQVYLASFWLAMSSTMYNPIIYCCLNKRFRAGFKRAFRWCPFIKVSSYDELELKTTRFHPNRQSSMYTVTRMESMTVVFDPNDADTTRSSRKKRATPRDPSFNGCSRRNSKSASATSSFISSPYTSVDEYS
# Test Method Notes: [3H]SR142801 competition binding assay
# Cond: hNK-3 receptor affinity; membranes from HEK293 cells transiently expressing recombinant human NK3 receptor; [3H]SR142801; Cheng-Prussoff; read-out: Data Ki
Measured Attribute: log10(Ki) (log10 of the value in nM)

compound=CN(C(=O)OCC1(C)CC1)[C@@H]1CN(C(=O)C2CCN(c3ccc(C#N)cn3)CC2)C[C@H]1c1ccc(Cl)cc1 measured_on="recombinant human NK3 receptor (Homo sapiens)" reported_measurement=0.89
compound=CN(C(=O)OC1(C)CCCC1)[C@@H]1CN(C(=O)C2CCN(c3ccc(C#N)cn3)CC2)C[C@H]1c1ccc(Cl)cc1 measured_on="recombinant human NK3 receptor (Homo sapiens)" reported_measurement=1.67
compound=CN(C(=O)O[C@H]1CC[C@@H](C(F)(F)F)CC1)[C@@H]1CN(C(=O)C2CCN(C(=O)C3(C)CC3)CC2)C[C@H]1c1ccc(Cl)c(Cl)c1 measured_on="recombinant human NK3 receptor (Homo sapiens)" reported_measurement=-0.15
compound=CN(C(=O)OCC(F)(F)F)[C@@H]1CN(C(=O)C2CCN(C(=O)C3(C)CC3)CC2)C[C@H]1c1ccc(Cl)cc1 measured_on="recombinant human NK3 receptor (Homo sapiens)" reported_measurement=1.91
compound=CN(C(=O)OCCC(F)(F)F)[C@H]1CN(C(=O)C2CCN(c3ccc(C#N)cn3)CC2)C[C@@H]1c1ccc(Cl)cc1 measured_on="recombinant human NK3 receptor (Homo sapiens)" reported_measurement=1.76
compound="CN(C(=O)OCCC1CC1)[C@@H]1CN(C(=O)C2CCN(C(=O)C3(C)CC3)CC2)C[C@H]1c1ccc(Cl)cc1 (stereo in doubt)" measured_on="recombinant human NK3 receptor (Homo sapiens)" reported_measurement=1.18
compound=CN(C(=O)OC1CCCCC1)[C@@H]1CN(C(=O)C2CCN(C(=O)C3(C)CC3)CC2)C[C@H]1c1ccc(Cl)cc1 measured_on="recombinant human NK3 receptor (Homo sapiens)" reported_measurement=1.17
compound="CN(C(=O)OCC1(C)CC1)[C@H]1CN(C(=O)C2CCN(C(=O)C3(C)CC3)CC2)C[C@@H]1c1ccc(Cl)c(Cl)c1 (racemic) [Example 91]" measured_on="recombinant human NK3 receptor (Homo sapiens)" reported_measurement=0.64
compound=CN(C(=O)O[C@]1(C)CC[C@@H](C)CC1)[C@@H]1CN(C(=O)C2CCN(c3ccc(C#N)cn3)CC2)C[C@H]1c1ccc(Cl)cc1 measured_on="recombinant human NK3 receptor (Homo sapiens)" reported_measurement=0.43
compound=CN(C(=O)OCC1CC1)[C@@H]1CN(C(=O)C2CCN(c3ccc(C#N)cn3)CC2)C[C@H]1c1ccc(Cl)cc1 measured_on="recombinant human NK3 receptor (Homo sapiens)" reported_measurement=0.92
compound=CN(C(=O)OC1CCCCC1)[C@@H]1CN(C(=O)C2CCN(c3ccc(C#N)cn3)CC2)C[C@H]1c1ccc(Cl)cc1 measured_on="recombinant human NK3 receptor (Homo sapiens)" reported_measurement=0.51
compound=CN(C(=O)OC1CCOCC1)[C@@H]1CN(C(=O)C2CCN(c3ccc(C#N)cn3)CC2)C[C@H]1c1ccc(Cl)cc1 measured_on="recombinant human NK3 receptor (Homo sapiens)" reported_measurement=1.26
compound="CN(C(=O)OCCCC(F)(F)F)[C@H]1CN(C(=O)C2CCN(C(=O)C3(C)CC3)CC2)C[C@@H]1c1ccc(Cl)c(Cl)c1 (racemic) [Example 67]" measured_on="recombinant human NK3 receptor (Homo sapiens)" reported_measurement=-0.40
compound=CN(C(=O)OCCC(F)(F)F)[C@@H]1CN(C(=O)C2CCN(c3ccc(C#N)cn3)CC2)C[C@H]1c1ccc(Cl)cc1 measured_on="recombinant human NK3 receptor (Homo sapiens)" reported_measurement=1.32
compound=CN(C(=O)OCC1(C)CC1)[C@@H]1CN(C(=O)C2CCN(C(=O)C3(C)CC3)CC2)C[C@H]1c1ccc(Cl)c(Cl)c1 measured_on="recombinant human NK3 receptor (Homo sapiens)" reported_measurement=1.85
compound="CN(C(=O)OCCCC(F)(F)F)[C@H]1CN(C(=O)C2CCN(C(=O)C3(C)CC3)CC2)C[C@@H]1c1ccc(Cl)c(Cl)c1 [Example 81]" measured_on="recombinant human NK3 receptor (Homo sapiens)" reported_measurement=1.83
compound=COCCCOC(=O)N(C)[C@@H]1CN(C(=O)C2CCN(c3ccc(C#N)cn3)CC2)C[C@H]1c1ccc(Cl)cc1 measured_on="recombinant human NK3 receptor (Homo sapiens)" reported_measurement=1.73
compound=CN(C(=O)O[C@H]1CC[C@H](C(F)(F)F)CC1)[C@@H]1CN(C(=O)C2CCN(c3ccc(C#N)cn3)CC2)C[C@H]1c1ccc(Cl)c(Cl)c1 measured_on="recombinant human NK3 receptor (Homo sapiens)" reported_measurement=-0.40
compound="CN(C(=O)OCCC1CC1)[C@H]1CN(C(=O)C2CCN(C(=O)C3(C)CC3)CC2)C[C@@H]1c1ccc(Cl)c(Cl)c1 (racemic) [Example 25]" measured_on="recombinant human NK3 receptor (Homo sapiens)" reported_measurement=0.73
compound=CN(C(=O)OCCC1CC1)[C@@H]1CN(C(=O)C2CCN(c3ccc(C#N)cn3)CC2)C[C@H]1c1ccc(Cl)cc1 measured_on="recombinant human NK3 receptor (Homo sapiens)" reported_measurement=0.56
compound=CN(C(=O)O[C@H]1CC[C@@H](C(F)(F)F)CC1)[C@H]1CN(C(=O)C2CCN(C(=O)C3(C)CC3)CC2)C[C@@H]1c1ccc(Cl)c(Cl)c1 measured_on="recombinant human NK3 receptor (Homo sapiens)" reported_measurement=1.77
compound="CN(C(=O)OCC1(C)CC1)[C@H]1CN(C(=O)C2CCN(C(=O)C3(C)CC3)CC2)C[C@@H]1c1ccc(Cl)c(Cl)c1 [Example 106]" measured_on="recombinant human NK3 receptor (Homo sapiens)" reported_measurement=0.00
compound=CN(C(=O)OCCCF)[C@@H]1CN(C(=O)C2CCN(c3ccc(C#N)cn3)CC2)C[C@H]1c1ccc(Cl)cc1 measured_on="recombinant human NK3 receptor (Homo sapiens)" reported_measurement=1.97
compound="CN(CCC1CC1)C(=O)N(C)[C@H]1CN(C(=O)C2CCN(C(=O)C3(C)CC3)CC2)C[C@@H]1c1ccc(Cl)c(Cl)c1 (racemic)" measured_on="recombinant human NK3 receptor (Homo sapiens)" reported_measurement=1.49
compound=CN(C(=O)OCC1(C)COC1)[C@@H]1CN(C(=O)C2CCN(c3ccc(C#N)cn3)CC2)C[C@H]1c1ccc(Cl)cc1 measured_on="recombinant human NK3 receptor (Homo sapiens)" reported_measurement=1.29
